Source: paper PMC6010128

Reported Selectivity for AChE values follow for various compounds
target: AChE (Rattus norvegicus); experiment: biochemical; details: IC50 (BChE)/IC50 (AChE)
Sequence (P37136 32-614): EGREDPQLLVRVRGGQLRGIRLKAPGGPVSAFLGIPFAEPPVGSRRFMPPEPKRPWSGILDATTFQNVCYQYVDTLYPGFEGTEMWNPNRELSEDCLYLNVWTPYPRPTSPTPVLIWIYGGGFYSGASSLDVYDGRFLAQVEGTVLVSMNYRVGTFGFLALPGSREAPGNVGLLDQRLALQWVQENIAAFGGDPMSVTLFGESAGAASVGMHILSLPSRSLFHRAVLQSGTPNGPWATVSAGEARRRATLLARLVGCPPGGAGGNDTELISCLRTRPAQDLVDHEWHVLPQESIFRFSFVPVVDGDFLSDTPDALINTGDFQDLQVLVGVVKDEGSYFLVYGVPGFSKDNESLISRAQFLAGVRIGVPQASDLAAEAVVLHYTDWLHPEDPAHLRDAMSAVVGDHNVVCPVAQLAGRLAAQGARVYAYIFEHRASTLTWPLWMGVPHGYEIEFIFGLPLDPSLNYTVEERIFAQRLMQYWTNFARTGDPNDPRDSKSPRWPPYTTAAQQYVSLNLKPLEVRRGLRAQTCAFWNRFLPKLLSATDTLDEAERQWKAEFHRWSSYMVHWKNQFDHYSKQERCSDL
No unit in the answer, only the number.

| COMPOUND | MEASURED QUANTITY | TEST RESULT |
| --- | --- | --- |
| O=C(C=Cc1ccccc1)Nc1cccc(OCCN2CCCCC2)c1 [Compound 5f] | Selectivity for AChE | 0.16 |
| CCCCCC(=O)Nc1cccc(OCCN(C)C)c1 [Compound 23d] | Selectivity for AChE | 0.13 |
| O=C(CCc1ccccc1)Nc1ccc(OCCN2CCCCC2)cc1 [Compound 12f] | Selectivity for AChE | 6.60 |
| C/C=C/C=C/C(=O)Nc1cccc(OCCN2CCCC2)c1 [Compound 17g] | Selectivity for AChE | 1.51 |

// switching to the query compound
Problem: Consider the compound C/C=C/C=C/C(=O)Nc1ccc(OCCN2CCCCC2)cc1 [Compound 18f] and give its measured Selectivity for AChE.
Solution: 22.1
